MEASURED TARGET: wild type human HSD17B13 (Homo sapiens (Human), UniProt Q7Z5P4)
EXPERIMENT: HEK_Beta-Est LCMS_IC50_Tekcel, whole-cell HEK-HSD17B13 inhibition assay, estrone production by LCMS
ASSAY SETUP: geometric mean, HEK cells stably expressing wild type human HSD17B13, 25 μM FAC beta-estradiol, read-out: HEK_Beta-Est LCMS_IC50—Tekcel GMean IC50
pIC50: −log10 of the molar value.
PROPERTY LABEL: pIC50

Record excerpt, results attached:
{"SMILES REPRESENTATION": "Cn1cc(-c2ccc3cn([C@H]4CC[C@H](CNC(=O)c5cc(F)c(O)c(F)c5)CC4)nc3c2)nn1", "pIC50": 6.43}
{"SMILES REPRESENTATION": "COc1ccc2nn([C@H]3CC[C@H](CNC(=O)c4cc(F)c(O)c(F)c4)CC3)cc2c1", "pIC50": 6.40}

(a) O=C(NC[C@H]1CC[C@H](n2cc3cc(C(F)(F)F)ccc3n2)CC1)c1cc(F)c(O)cc1F
(b) Cc1nn(C)cc1-c1ccc2cn([C@H]3CC[C@H](CNC(=O)c4cc(F)c(O)c(F)c4)CC3)nc2c1
Exam item: # compare pIC50 for a vs b ; return the one with the smaller value Answer = label.
Marked response: a

----------
MEASURED TARGET: wild type human HSD17B13 (Homo sapiens (Human))
EXPERIMENT: HEK_Beta-Est LCMS_IC50_Tekcel, whole-cell HEK-HSD17B13 inhibition assay, estrone production by LCMS
ASSAY SETUP: geometric mean, HEK cells stably expressing wild type human HSD17B13, 25 μM FAC beta-estradiol, read-out: HEK_Beta-Est LCMS_IC50—Tekcel GMean IC50
Counter-ions that a name gives are not always drawn.
PROPERTY LABEL: IC50 (nM)

(A) O=C(NC[C@H]1CC[C@H](c2nc(-c3cnc(C(F)(F)F)cn3)no2)CC1)c1cc(F)c(O)c(F)c1
(B) O=C(NC[C@H]1CC[C@H](n2cc3cc(C(F)(F)F)ccc3n2)CC1)c1cc(F)c(O)c(F)c1
Exam item: Between A and B , whose measured IC50 reads higher? // respond with label for picked entry
Marked response: A
(A: 410 nM, B: 230 nM)

(I) O=C(NC[C@H]1CC[C@H](n2cc3ccc(-c4cnn(C5CCOCC5)c4)cc3n2)CC1)c1cc(F)c(O)c(F)c1
(II) Cc1cncc(-c2ccc3cn([C@H]4CC[C@H](CNC(=O)c5cc(F)c(O)c(F)c5)CC4)nc3c2)c1 [Example 90, trifluoroacetate salt]
Exam item: Hello, I am sorting some records. Could you say if I or II has the smaller IC50 value? # respond with the chosen item's label
Marked response: II

----------
MEASURED TARGET: HSD17B13 enzyme (Homo sapiens (Human), UniProt Q7Z5P4)
Sequence (Q7Z5P4 20-300): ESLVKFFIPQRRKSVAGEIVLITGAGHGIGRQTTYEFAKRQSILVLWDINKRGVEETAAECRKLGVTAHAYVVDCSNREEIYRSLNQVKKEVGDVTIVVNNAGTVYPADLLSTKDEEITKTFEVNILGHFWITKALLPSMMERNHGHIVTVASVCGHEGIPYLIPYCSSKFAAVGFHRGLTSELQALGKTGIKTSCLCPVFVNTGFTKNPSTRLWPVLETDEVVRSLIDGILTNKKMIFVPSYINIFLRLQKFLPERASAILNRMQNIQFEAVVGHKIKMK
EXPERIMENT: hHSD17B13 IC50 Assay (FAC beta-estradiol), purified protein enzyme activity assay with NAD(P)H-Glo luciferase readout
Format: biochemical
ASSAY SETUP: geometric mean, 12 μM FAC beta-estradiol, 500 μM NAD+, read-out: hHSD17B13_IC50 GMean IC50
Structures can show the parent of a compound that is named as a salt.
PROPERTY LABEL: IC50 (µM)

{"COMPOUND": "O=C(NC[C@H]1CC[C@H](n2cc3cnc(-c4ccncc4)cc3n2)CC1)c1cc(F)c(O)c(F)c1", "PROPERTY LABEL": "IC50", "NUMERIC RESULT": 0.011}
{"COMPOUND": "Cc1ccc2cn([C@H]3CC[C@H](CNC(=O)c4cc(F)c(O)c(F)c4)CC3)nc2c1", "PROPERTY LABEL": "IC50", "NUMERIC RESULT": 0.027}
{"COMPOUND": "O=C(NC[C@]12CC[C@](c3nc(-c4ccc(C(F)(F)F)nn4)no3)(CC1)CC2)c1ccc(O)c(F)c1F", "PROPERTY LABEL": "IC50", "NUMERIC RESULT": 0.011}
{"COMPOUND": "O=C(NC[C@H]1CC[C@H](n2cc3ccccc3n2)CC1)c1cc(F)c(O)c(F)c1", "PROPERTY LABEL": "IC50", "NUMERIC RESULT": 0.02}
{"COMPOUND": "COc1ccc2cn([C@H]3CC[C@H](CNC(=O)c4cc(F)c(O)c(F)c4)CC3)nc2c1", "PROPERTY LABEL": "IC50", "NUMERIC RESULT": 0.02}
{"COMPOUND": "CN1CCN(c2ccc3cn([C@H]4CC[C@H](CNC(=O)c5cc(F)c(O)c(F)c5)CC4)nc3c2)CC1 [Example 136, ammonium salt]", "PROPERTY LABEL": "IC50", "NUMERIC RESULT": 0.015}
{"COMPOUND": "Cc1noc([C@H]2CC[C@H](CNC(=O)c3ccc(O)c(F)c3)CC2)n1", "PROPERTY LABEL": "IC50", "NUMERIC RESULT": 0.29}
{"COMPOUND": "N#Cc1cccc(-c2ccc3cn([C@H]4CC[C@H](CNC(=O)c5cc(F)c(O)c(F)c5)CC4)nc3c2)c1", "PROPERTY LABEL": "IC50", "NUMERIC RESULT": 0.017}
{"COMPOUND": "CS(=O)(=O)c1ccc(-c2noc([C@H]3CC[C@H](CNC(=O)c4cc(F)c(O)c(F)c4)CC3)n2)cc1", "PROPERTY LABEL": "IC50", "NUMERIC RESULT": 0.016}
{"COMPOUND": "O=C(NC[C@]12CC[C@](c3noc(-c4ccc(OS(=O)(=O)F)cc4)n3)(CC1)CC2)c1cc(F)c(O)c(F)c1", "PROPERTY LABEL": "IC50", "NUMERIC RESULT": 0.016}

(a) O=C(NC[C@]12CC[C@](n3cc4ccccc4n3)(CC1)CC2)c1cc(F)c(O)c(F)c1
(b) O=C(NC[C@H]1CC[C@H](c2noc(-c3ccccc3)n2)CC1)c1cc(F)c(O)c(F)c1
Exam item: Between the entries labeled a and b , whose measured IC50 is lower? Could you answer with the label of the item you picked?
Marked response: b

(P) O=C(NC[C@H]1CC[C@H](n2cc(-c3ccc4nccnc4c3)nn2)CC1)c1cc(F)c(O)c(F)c1
(Q) Cn1nc(-c2noc([C@]34CC[C@](CNC(=O)c5cc(F)c(O)c(F)c5)(CC3)CC4)n2)ccc1=O
Exam item: Returns the identifier with the smallest measured IC50 among P and Q . Pick one; state its label.
Marked response: Q

----------
MEASURED TARGET: wild type human HSD17B13 (Homo sapiens (Human))
EXPERIMENT: HEK_Beta-Est LCMS_IC50_Tekcel, whole-cell HEK-HSD17B13 inhibition assay, estrone production by LCMS
ASSAY SETUP: geometric mean, HEK cells stably expressing wild type human HSD17B13, 25 μM FAC beta-estradiol, read-out: HEK_Beta-Est LCMS_IC50—Tekcel GMean IC50
Structures can show the parent of a compound that is named as a salt.
PROPERTY LABEL: IC50 (nM)

# count of solved cases: 6
{"MOLECULE": "O=C(NC[C@H]1CC[C@H](n2cc3ccc(-c4csc(N5CCOCC5)n4)cc3n2)CC1)c1cc(F)c(O)c(F)c1", "MEASURED TARGET": "wild type human HSD17B13 (Homo sapiens (Human))", "PROPERTY LABEL": "IC50", "READOUT UNITS": "nM", "NUMERIC RESULT": 170}
{"MOLECULE": "Cc1nnc(-c2ccc3cn([C@H]4CC[C@H](CNC(=O)c5cc(F)c(O)c(F)c5)CC4)nc3c2)s1 [Example 102, ammonium salt]", "MEASURED TARGET": "wild type human HSD17B13 (Homo sapiens (Human))", "PROPERTY LABEL": "IC50", "READOUT UNITS": "nM", "NUMERIC RESULT": 200}
{"MOLECULE": "O=C(NC[C@H]1CC[C@H](n2cc3cnc(-c4ccncc4)cc3n2)CC1)c1cc(F)c(O)c(F)c1", "MEASURED TARGET": "wild type human HSD17B13 (Homo sapiens (Human))", "PROPERTY LABEL": "IC50", "READOUT UNITS": "nM", "NUMERIC RESULT": 240}
{"MOLECULE": "N#Cc1ccc(-c2ccc3cn([C@H]4CC[C@H](CNC(=O)c5cc(F)c(O)c(F)c5)CC4)nc3c2)cc1", "MEASURED TARGET": "wild type human HSD17B13 (Homo sapiens (Human))", "PROPERTY LABEL": "IC50", "READOUT UNITS": "nM", "NUMERIC RESULT": 190}
{"MOLECULE": "Cc1cnc(-c2ccc3cn([C@H]4CC[C@H](CNC(=O)c5cc(F)c(O)c(F)c5)CC4)nc3c2)nc1", "MEASURED TARGET": "wild type human HSD17B13 (Homo sapiens (Human))", "PROPERTY LABEL": "IC50", "READOUT UNITS": "nM", "NUMERIC RESULT": 170}
{"MOLECULE": "CC(C)n1cc(-c2ccc3cn([C@H]4CC[C@H](CNC(=O)c5cc(F)c(O)c(F)c5)CC4)nc3c2)cn1", "MEASURED TARGET": "wild type human HSD17B13 (Homo sapiens (Human))", "PROPERTY LABEL": "IC50", "READOUT UNITS": "nM", "NUMERIC RESULT": 160}

(a) Cc1nc(-c2ccc3cn([C@H]4CC[C@H](CNC(=O)c5cc(F)c(O)c(F)c5)CC4)nc3c2)cs1
(b) O=C(NC[C@H]1CC[C@H](n2cc3ccc(-c4ccnnc4)cc3n2)CC1)c1cc(F)c(O)c(F)c1
(c) O=C(NC[C@H]1CC[C@H](c2noc(-c3ccccc3)n2)CC1)c1cc(F)c(O)c(F)c1
Exam item: Reorder the items by IC50, least to greatest. Could you list the labels in the order requested?
Marked response: a, c, b

(1) Cn1cc(-c2ccc3cn([C@H]4CC[C@H](CNC(=O)c5cc(F)c(O)c(F)c5)CC4)nc3c2)c(F)n1
(2) CC(C)(C)C(=O)Nc1ccc(-c2noc([C@H]3CC[C@H](CNC(=O)c4cc(F)c(O)c(F)c4)CC3)n2)nn1 [Example 17, ammonium salt]
Exam item: Form field 'greater IC50' accepts 1 or 2 ; which applies? Kindly give the label for the entry you pick.
Marked response: 2
